systemTested: human OX2 receptor (Homo sapiens, UniProt O43614)
Construct: expressed in transfected cells
Sequence (O43614 whole entry): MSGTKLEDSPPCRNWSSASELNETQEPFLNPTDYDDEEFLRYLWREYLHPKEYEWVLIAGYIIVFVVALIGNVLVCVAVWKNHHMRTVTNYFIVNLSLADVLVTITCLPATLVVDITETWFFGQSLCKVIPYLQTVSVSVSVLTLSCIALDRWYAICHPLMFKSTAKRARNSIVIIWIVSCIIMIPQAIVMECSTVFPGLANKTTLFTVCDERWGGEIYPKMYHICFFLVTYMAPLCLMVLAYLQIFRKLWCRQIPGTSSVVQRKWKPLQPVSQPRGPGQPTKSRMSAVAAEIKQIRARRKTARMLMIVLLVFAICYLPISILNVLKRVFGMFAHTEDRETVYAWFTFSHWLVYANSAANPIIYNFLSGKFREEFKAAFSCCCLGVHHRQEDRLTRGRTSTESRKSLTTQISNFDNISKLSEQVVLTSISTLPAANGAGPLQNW
assayText: Measurement of orexin type 2 receptor agonist activity (calcium fluorescence, Fluo-4, FDSS)
Assay type: cell-based
testParameters: 3 uM test compound; CHO cells expressing human OX2 receptor; DMSO = 0%, 10 nM orexin A (human) = 100%
attributeMeasured: OX2R agonist activity (3 uM, %)

**Query** Quick one: OX2R agonist activity (3 uM, %) for Cc1cc(-c2c(F)cc(F)cc2F)c2c(N3C[C@H]4N(C[C@@H](NS(C)(=O)=O)C4(F)F)C3=O)noc2c1 ?
**Result** 100

**Query** Which OX2R agonist activity (3 uM, %) is listed for CCS(=O)(=O)NC1CN2C(=O)N(c3noc4cccc(-c5c(F)cccc5F)c34)C[C@@H]2C1C (stereo in doubt) [Example 183] ?
**Result** 101

**Query** What does the data say about its OX2R agonist activity (3 uM, %)? Entry: O=C1N(c2noc3cccc(-c4c(F)cccc4F)c23)C[C@@H]2C[C@H](NS(=O)(=O)C(F)F)CN12
**Result** 100

**Query** Entry under review: CS(=O)(=O)N[C@@H]1Cn2c(cn(-c3noc4cccc(-c5c(F)cccc5F)c34)c2=O)C1(F)F . Reported OX2R agonist activity (3 uM, %)?
**Result** 100
